Species on record: Rattus norvegicus
Test: DrugMatrix - Regimen: Daily Repeat
Type: toxicity, organism-based, Sprague-Dawley
Design: regimen Daily Repeat, gender Male, age 6-8 weeks
Details: in vivo, po, 0 mg/kg, 120 h, tissue Plasma, route oral GAVAGE, dose level Control, time 5 day, […]
Property label: CHLORIDE

For orientation, consider the following solved cases.
| Compound | CHLORIDE |
| --- | --- |
| O=NN(CCCl)C(=O)NCCCl [CARMUSTINE] | 98.5 MEQ/L |
| CC/C(=C(/CC)c1ccc(O)cc1)c1ccc(O)cc1 [DIETHYLSTILBESTROL] | 97 MEQ/L |
| CCCCCCCCc1ccc(O)cc1 [4-OCTYLPHENOL] | 100.33 MEQ/L |
| CC(C)Cc1ccc(C(C)C(=O)O)cc1 (centres undefined) [IBUPROFEN] | 103.67 MEQ/L |

Hi, could you look up CHLORIDE for each item in my list?
1. C[C@H]1O[C@@H](O[C@H]2[C@@H](O)C[C@H](O[C@H]3[C@@H](O)C[C@H](O[C@H]4CC[C@@]5(C)[C@H](CC[C@@H]6[C@@H]5CC[C@]5(C)[C@@H](C7=CC(=O)OC7)CC[C@]65O)C4)O[C@@H]3C)O[C@@H]2C)C[C@H](O)[C@@H]1O [DIGITOXIN]
2. C[C@]12CC[C@@H]3c4ccc(O)cc4CC[C@H]3[C@@H]1CC[C@@H]2O [ESTRADIOL]
3. CC(C)(Oc1ccc(C2CCCc3ccccc32)cc1)C(=O)O (centres undefined) [NAFENOPIN]
4. COc1ccc2[nH]c([S+]([O-])Cc3ncc(C)c(OC)c3C)nc2c1 (centres undefined) [OMEPRAZOLE]
5. Clc1ccc(Cl)cc1 [1,4-DICHLOROBENZENE]
6. Cc1cccc(Nc2ccncc2S(=O)(=O)NC(=O)NC(C)C)c1 [TORSEMIDE]
7. COCCOC(=O)C1=C(C)NC(C)=C(C(=O)OC(C)C)C1c1cccc([N+](=O)[O-])c1 (centres undefined) [NIMODIPINE]
8. CC(=O)Nc1cccc(O)c1 [METACETAMOL]

["98.67 MEQ/L", "98.33 MEQ/L", "96 MEQ/L", "89.17 MEQ/L", "104 MEQ/L", "98.33 MEQ/L", "100.33 MEQ/L", "104.33 MEQ/L"]

Hi, could you look up CHLORIDE for each item in my list?
1. CC(=O)Nc1ccc(O)cc1 [ACETAMINOPHEN]
2. CCOC(=O)C1=C(C)NC(C)=C(C(=O)OC)C1c1cccc([N+](=O)[O-])c1 (centres undefined) [NITRENDIPINE]

98.5 MEQ/L
100.33 MEQ/L
